- Tested on: SEM cells
- MEASUREMENT_PROTOCOL: cell viability relative to DMSO control; higher = less cytotoxic
- MEASUREMENT_CONTEXT: HPLM + 10% dialyzed FBS; 48 h; 0.569 µM
Reported cell viability values for the following compounds.
READOUT_TYPE: cell viability

INSERT INTO results (compound, reported_result) VALUES
  ('Cc1cc(O)c2c(c1)C(=O)c1cccc(O)c1C2=O', '135%'),
  ('C[C@@H]1O[C@@H](O[C@H]2C[C@@H](O)[C@]3(CO)[C@H]4[C@H](O)C[C@]5(C)[C@@H](C6=CC(=O)OC6)CC[C@]5(O)[C@@H]4CC[C@]3(O)C2)[C@H](O)[C@H](O)[C@H]1O', '7.03%'),
  ('O=C(CS(=O)Cc1ccco1)NC/C=C\COc1cc(CN2CCCCC2)ccn1 (stereo unspecified)', '102%'),
  ('CC(C)(O)CCc1ccc(OCc2cc(-c3cccc(OC(F)F)c3)c3ncccc3c2)cc1', '115%'),
  ('CN1CCN(c2c(F)cc3c(=O)c(C(=O)O)cn(CCF)c3c2F)CC1', '100%'),
  ('CO[C@@]12[C@H](COC(N)=O)C/3=C(N1C[C@@H]4N[C@H]24)/C(=O)/C(=C(N)\C3=O)C', '125%');

###

- Test system: SEM cells
- MEASUREMENT_PROTOCOL: cell viability relative to DMSO control; higher = less cytotoxic
- MEASUREMENT_CONTEXT: RPMI 5 mM glucose + 10% dialyzed FBS; 48 h; 0.00702 µM
READOUT_TYPE: cell viability (%)

INSERT INTO measurements (compound, value_units, reported_result) VALUES
  ('N\C1=N\C2=C(N=C[N]2COCCO)C(=O)N1', '%', 95.9),
  ('CCN(CC)CCOc1ccc(Cc2ccccc2)cc1', '%', 101),
  ('CCc1cc(C(N)=S)ccn1', '%', 89.8),
  ('CC[C@@H]1[C@@H](C)O[C@@](O)([C@@H](C)[C@H](O)[C@H](C)[C@H]2OC(=O)/C=C/C=C/[C@H](C)[C@@H]([C@@H](C)[C@@H](O)[C@H](C)[C@@]3(O)C[C@@H](O[C@H]4C[C@H](O)[C@H](O)[C@H](C)O4)[C@H](CC)[C@@H](C)O3)OC(=O)/C=C/C=C/[C@@H]2C)C[C@H]1O[C@H]1C[C@H](O)[C@H](O)[C@H](C)O1', '%', 108),
  ('COc1cc2ncn(-c3cc(OCc4ccccc4[S+](C)(=O)[O-])c(C#N)s3)c2cc1OC', '%', 89.1),
  ('C[C@@H]1CN(Cc2ccc(F)cc2)[C@@H](C)CN1C(=O)c1cc2c(C(=O)C(=O)N(C)C)cn(C)c2cc1Cl', '%', 110),
  ('CCC(C)N1\N=C/N(C1=O)C2=CC=C(C=C2)N3CCN(CC3)C4=CC=C(OC[C@H]5CO[C@@](C[N]6C=NC=N6)(O5)C7=CC=C(Cl)C=C7Cl)C=C4 (stereo partly specified)', '%', 115),
  ('C[C@@H]1CCN(C(=O)CC#N)C[C@@H]1N(C)c1ncnc2[nH]ccc12', '%', 77.5),
  ('COc1cc(Nc2c(C#N)cnc3cc(OCCCN4CCN(C)CC4)c(OC)cc23)c(Cl)cc1Cl', '%', 103),
  ('Cc1ccccc1C(OCCN(C)C)c1ccccc1 (stereo unspecified)', '%', 116),
  ('N#C/C(=C\c1ccc(O)c(O)c1)C(=O)NCc1ccccc1', '%', 96.4),
  ('Cc1ccc(C(=O)Nc2cccc(C(F)(F)F)c2)cc1-c1ccc2nc(NCCN3CCOCC3)ncc2c1', '%', 94.5),
  ('O=C(O)CCCCC(CCSCc1ccccc1)SCc1ccccc1 (stereo unspecified)', '%', 121),
  ('O=C1CCC[C@@H]2[C@H]3CCCN4CCC[C@@H](CN12)[C@@H]34', '%', 62.4),
  ('O=C(CCCCCCC(=O)Nc1ccc([C@H]2O[C@@H](CSc3nc(-c4ccccc4)c(-c4ccccc4)o3)C[C@@H](c3ccc(CO)cc3)O2)cc1)NO', '%', 135),
  ('CN1CCN(c2c(F)cc3c(=O)c(C(=O)O)cn(CCF)c3c2F)CC1', '%', 123);
